Hey, just so you know, these numbers are from the supplement of paper PMC9262897.

I'd be grateful if you could share measured growth for these entries.
Tested on: E. coli TESEC Mtb Alr
Method: growth (OD600 after 10 h); higher = more growth (less inhibition)
Protocol conditions: arabinose 1000 nM; compound 0.1 mM; raw OD600 reference: median of DMSO wells 0.294, cell-free background 0.041
Structures can show the parent of a compound that is named as a salt.
Simply state the number, no unit and no words.

Please look at this compound and report its growth: CN[C@@H]1[C@H](O)[C@H](NC)[C@H]2O[C@@]3(O)C(=O)C[C@@H](C)O[C@H]3O[C@@H]2[C@H]1O [Spectinomycin dihydrochloride] 0.0841

Please look at this compound and report its growth: CCC(=O)O[C@]1(C(=O)CCl)[C@@H](C)C[C@H]2[C@@H]3CCC4=CC(=O)C=C[C@]4(C)[C@@]3(F)[C@@H](O)C[C@@]21C [Clobetasol propionate] 0.19

Please look at this compound and report its growth: "O=C(O)c1ccccc1Nc1cccc(C(F)(F)F)c1" 0.05

Please look at this compound and report its growth: "CNC[C@H](O)[C@@H](O)[C@H](O)[C@H](O)CO" 0.306

Please look at this compound and report its growth: CCOC(=O)[C@H](CCc1ccccc1)N[C@@H](C)C(=O)N1CCC[C@H]1C(=O)O [Enalapril maleate] 0.296

Please look at this compound and report its growth: "CCOc1ccc2c(c1)C(C)=CC(C)(C)N2" 0.283

Please look at this compound and report its growth: "CC(C)(C)C(=O)OCOC(=O)[C@@H]1N2C(=O)[C@@H](NC(=O)[C@H](N)c3ccccc3)[C@H]2SC1(C)C" 0.351

Please look at this compound and report its growth: NC(=O)N1c2ccccc2CC(=O)c2ccccc21 [Oxcarbazepine] 0.269

---

Test system: E. coli TESEC Mtb DapB
Method: growth (OD600 after 10 h); higher = more growth (less inhibition)
Protocol conditions: arabinose induction (level): High; compound 0.1 mM; raw OD600 reference: median of DMSO wells […], cell-free background 0.041
Structures can show the parent of a compound that is named as a salt.
Measured metric: growth
Simply state the number, no unit and no words.

Please look at this molecule and report its growth: C=CC1=C(C(=O)O)N2C(=O)[C@@H](NC(=O)/C(=N\O)c3csc(N)n3)[C@H]2SC1 [Cefdinir] 0.0548

Please look at this molecule and report its growth: Cc1cccc(N(C)C(=S)Oc2ccc3ccccc3c2)c1 [Tolnaftate] 0.174

Please look at this molecule and report its growth: C[C@]12CC[C@H]3C(=CCc4cc(O)ccc43)[C@@H]1CCC2=O [Equilin] 0.174

Please look at this molecule and report its growth: CCN(CC)C(=O)Nc1ccc(OCC(O)CNC(C)(C)C)c(C(C)=O)c1 (stereo not drawn) [Celiprolol HCl] 0.192

Please look at this molecule and report its growth: CN[C@@H]1[C@@H](O)[C@@H](O[C@@H]2[C@@H](O)[C@H](O[C@H]3OC(CN)=CC[C@H]3N)[C@@H](N)C[C@H]2N)OC[C@]1(C)O [Sisomicin sulfate] 0.144

Please look at this molecule and report its growth: Nc1nc2c(ncn2COCCO)c(=O)[nH]1 [Acyclovir] 0.206

Please look at this molecule and report its growth: CNCCC(Oc1ccc(C(F)(F)F)cc1)c1ccccc1 (stereo not drawn) [Fluoxetine hydrochloride] 0.142

Please look at this molecule and report its growth: CC1(O)CCOC(=O)C1 (stereo not drawn) [Mevalonic-D, L acid lactone] 0.183
